# EXPERIMENTAL_TARGET: human glucagon receptor (human, UniProt P47871 26-477)
# ASSAY_DETAILS: cell-based or functional assay
Starred links: 1 amine or outer side, 2 acyl side, 3 side chain; linkers in the order of their positions; H or OH if unused. Non-standard residues stand in square brackets, D forms with d. No end group written: not given here. *: point of attachment. NMe2F‑APPA = N-methyl-2-amino-5-(2-fluorophenyl)pentanoic acid, CN([C@@H](CCCc1ccccc1F)C(=O)[*:2])[*:1]; Bip(2'-Et-4'-OMe) = CCc1cc(OC)ccc1-c1ccc(C[C@H](N)C(=O)O)cc1; 2F‑APPA = 2-amino-5-(2-fluorophenyl)pentanoic acid; αMePhe(2-F) = C[C@](N)(Cc1ccccc1F)C(=O)O; hhPhe = N[C@@H](CCCc1ccccc1)C(=O)O; 2,4‑diCl‑APPA = not defined here; aThr = C[C@H](O)[C@H](N)C(=O)O; CNB = not defined here; Aib = CC(C)(N)C(=O)O; Moc = COC(=O)*
QUANTITY: inhibition of cAMP production, 100 nM (pmol/ml/µg prt)

binder="Moc-H[Aib]QGT[αMePhe(2-F)]TSD[Bip(2'-Et-4'-OMe)][hhPhe] (also: thioamide bonds between residues 9-10 and 10-11) [Seq. ID. No. 170: CH3OCO-H-Aib-QGT-(α-Me-2F-Phe)-TSD-(C═S)-Bip(OMe)-(C═S)-(APPA)]" quantity="inhibition of cAMP production, 100 nM" quantitative_result=2
binder="HSQGTFTSD[Bip(2'-Et-4'-OMe)][2,4‑diCl‑APPA] (reading uncertain) [Seq. ID. No. 51: HSQGTFTSD-Bip(OMe)-(2,4-diCl-APPA)]" quantity="inhibition of cAMP production, 100 nM" quantitative_result=0
binder="H[Aib]QG[aThr][αMePhe(2-F)][aThr]SD[Bip(2'-Et-4'-OMe)][2F‑APPA] (also: reduced (CH2) bond between 10 and 11) [Seq. ID. No. 191: H-Aib-QG-T(allo)-(α-Me-2F-Phe)-T(allo)-SD-Bip(OMe)-(CH2)-(2F-APPA)]" quantity="inhibition of cAMP production, 100 nM" quantitative_result=2
binder="Moc-H[Aib]QGT[αMePhe(2-F)]TSD[Bip(2'-Et-4'-OMe)][hhPhe] (also: reduced (CH2) bonds between 9-10 and 10-11) [Seq. ID. No. 194: CH3OCO-H-Aib-QGT-(α-Me-2F-Phe)-TSD-(CH2)-Bip(OMe)-(CH2)-(APPA)]" quantity="inhibition of cAMP production, 100 nM" quantitative_result=12
binder="Moc-H[Aib]QGT[αMePhe(2-F)]TSD[Bip(2'-Et-4'-OMe)][2F‑APPA] (also: thioamide bonds between residues 9-10 and 10-11) [Seq. ID. No. 172: CH3OCO-H-Aib-QGT-(α-Me-2F-Phe)-TSD-(C═S)-Bip(OMe)-(C═S)-(2F-APPA)]" quantity="inhibition of cAMP production, 100 nM" quantitative_result=0
binder="Moc-H[Aib]QG[aThr][αMePhe(2-F)][aThr]SD[Bip(2'-Et-4'-OMe)][2F‑APPA] (also: reduced (CH2) bonds between 9-10 and 10-11) [Seq. ID. No. 200: CH3OCO-H-Aib-QG-T(allo)-(α-Me-2F-Phe)-T(allo)-SD-(CH2)-Bip(OMe)-(CH2)-(2F-APPA)]" quantity="inhibition of cAMP production, 100 nM" quantitative_result=6
binder="Ac-H[Aib]QGT[αMePhe(2-F)]TSD[Bip(2'-Et-4'-OMe)][2F‑APPA] (also: reduced (CH2) bonds between 9-10 and 10-11) [Seq. ID. No. 195: CH3CO-H-Aib-QGT-(α-Me-2F-Phe)-TSD-(CH2)-Bip(OMe)-(CH2)-(2F-APPA)]" quantity="inhibition of cAMP production, 100 nM" quantitative_result=8
binder="Ac-H[Aib][CNB]GT[αMePhe(2-F)]TSD[Bip(2'-Et-4'-OMe)][2F‑APPA] (reading uncertain) [Seq. ID. No. 207: CH3CO-H-Aib-(CNB)-GT-(α-Me-2F-Phe)-TSD-Bip(OMe)-(2F-APPA)]" quantity="inhibition of cAMP production, 100 nM" quantitative_result=0
binder="H[Aib][CNB]G[aThr][αMePhe(2-F)][aThr]SD[Bip(2'-Et-4'-OMe)][NMe2F‑APPA] (reading uncertain) [Seq. ID. No. 132: H-Aib-(CNB)-G-T(allo)-(α-Me-2F-Phe)-T(allo)-SD-Bip(OMe)-((NMe)(2F-APPA))]" quantity="inhibition of cAMP production, 100 nM" quantitative_result=8
